Data credit: ChEMBL document CHEMBL1153580

# Tested on: Rattus norvegicus
# Measurement protocol: Gastrointestinal toxicity in albino rat assessed as ulcerogenic index at 50 mg/kg, po
# Type: organism-based
# Set-up: dose 50 mg/kg, route oral
# Condition set: in vivo
compounds and their reported UI

Below are worked cases with known answers.
{"Compound": "CCOC(=O)C1=C(C)NC(OC)N(CC(=O)c2ccc(Cl)cc2)C1c1ccc(C)cc1 (centres undefined)", "UI": 0.76}
{"Compound": "CCOC(=O)C1=C(C)NC(OC)N(CC(=O)c2ccc(Cl)cc2)C1c1ccccc1 (centres undefined)", "UI": 0.45}
{"Compound": "CCOC(=O)C1=C(C)NC(OC)N(CC(=O)c2ccc(Cl)cc2)C1c1ccc(Cl)cc1 (centres undefined)", "UI": 0.2}

Let us move to another entry and its UI.
GET /values?readout=UI&item= CCOC(=O)C1=C(C)NC(OC)N(CC(=O)c2ccccc2)C1c1ccccc1 (centres undefined)
0.16
